# Tested on: choline acetyltransferase (ChAT) activity in dissociated rat embryonic spinal cord culture
# method_summary: Spinal Cord ChAT Activity Assay; further: test concentration or dose not given here
# Type: cell-based
# setup_conditions: ChAT measured after 48 hours
reported_endpoint: Spinal Cord ChAT Activity, % of Control, untreated cultures

Task: Write down the reported Spinal Cord ChAT Activity, % of Control, untreated cultures of O=C1NC(=O)c2c1c1c(c3[nH]c4ccccc4c23)Cc2cc(Br)ccc2-1 [Compound Ia-3] , test system: choline acetyltransferase (ChAT) activity in dissociated rat embryonic spinal cord culture.
Result: 138 % of Control

Task: Write down the reported Spinal Cord ChAT Activity, % of Control, untreated cultures of O=C1NCc2c1c1c(c3[nH]c4ccc(-c5ccccc5)cc4c23)Cc2ccccc2-1 [Compound I-27] , test system: choline acetyltransferase (ChAT) activity in dissociated rat embryonic spinal cord culture.
Result: 120 % of Control

Task: Write down the reported Spinal Cord ChAT Activity, % of Control, untreated cultures of O=C1NC(=O)c2c1c1c(c3[nH]c4ccc(Cl)cc4c23)Cc2ccccc2-1 [Compound I-10] , test system: choline acetyltransferase (ChAT) activity in dissociated rat embryonic spinal cord culture.
Result: 189 % of Control

Task: Write down the reported Spinal Cord ChAT Activity, % of Control, untreated cultures of O=C1NCc2c1c1c(c3[nH]c4ccc(CCc5ccccn5)cc4c23)Cc2ccccc2-1 [Compound I-34] , test system: choline acetyltransferase (ChAT) activity in dissociated rat embryonic spinal cord culture.
Result: 254 % of Control

Task: Write down the reported Spinal Cord ChAT Activity, % of Control, untreated cultures of O=C1NC(O)c2c1c1c3ccccc3ccc1c1[nH]c3ccccc3c21 (stereo not shown) [Compound I-38] , test system: choline acetyltransferase (ChAT) activity in dissociated rat embryonic spinal cord culture.
Result: 208 % of Control

Task: Write down the reported Spinal Cord ChAT Activity, % of Control, untreated cultures of O=C1NCc2c1c1c(c3[nH]c4ccc(I)cc4c23)Cc2ccccc2-1 [Compound I-40] , test system: choline acetyltransferase (ChAT) activity in dissociated rat embryonic spinal cord culture.
Result: 150 % of Control

Task: Write down the reported Spinal Cord ChAT Activity, % of Control, untreated cultures of O=C1NC(=O)c2c1c1c(c3[nH]c4ccccc4c23)Cc2ccccc2-1 [Compound I-1] , test system: choline acetyltransferase (ChAT) activity in dissociated rat embryonic spinal cord culture.
Result: 148 % of Control

Task: Write down the reported Spinal Cord ChAT Activity, % of Control, untreated cultures of C=CCn1c2ccccc2c2c3c(c4c(c21)Cc1ccccc1-4)C(=O)NC3 [Compound I-26] , test system: choline acetyltransferase (ChAT) activity in dissociated rat embryonic spinal cord culture.
Result: 167 % of Control

Task: Write down the reported Spinal Cord ChAT Activity, % of Control, untreated cultures of Cc1cccc2c1[nH]c1c3c(c4c(c12)C(=O)NC4=O)-c1ccccc1C3 [Compound Ib-1] , test system: choline acetyltransferase (ChAT) activity in dissociated rat embryonic spinal cord culture.
Result: 138 % of Control

Task: Write down the reported Spinal Cord ChAT Activity, % of Control, untreated cultures of O=C1NCc2c1c1c3ccccc3sc1c1[nH]c3ccccc3c21 [Compound I-43] , test system: choline acetyltransferase (ChAT) activity in dissociated rat embryonic spinal cord culture.
Result: 138 % of Control

Task: Write down the reported Spinal Cord ChAT Activity, % of Control, untreated cultures of C#Cc1ccc2[nH]c3c4c(c5c(c3c2c1)CNC5=O)-c1ccccc1C4 [Compound I-36] , test system: choline acetyltransferase (ChAT) activity in dissociated rat embryonic spinal cord culture.
Result: 167 % of Control

Task: Write down the reported Spinal Cord ChAT Activity, % of Control, untreated cultures of CCOC(=O)C=Cc1ccc2[nH]c3c4c(c5c(c3c2c1)CNC5=O)-c1ccccc1C4 [Compound I-25] , test system: choline acetyltransferase (ChAT) activity in dissociated rat embryonic spinal cord culture.
Result: 168 % of Control

Task: Write down the reported Spinal Cord ChAT Activity, % of Control, untreated cultures of O=c1[nH]c(=O)c2c1c1c3ccccc3[nH]c1c1c(=O)c3ccccc3c12 [Compound I-28] , test system: choline acetyltransferase (ChAT) activity in dissociated rat embryonic spinal cord culture.
Result: < 120 % of Control

Task: Write down the reported Spinal Cord ChAT Activity, % of Control, untreated cultures of O=C1NC(=O)c2c1c1c(c3[nH]c4ccccc4c23)CCc2cc(CCc3ccccn3)ccc2-1 [Compound Ia-7] , test system: choline acetyltransferase (ChAT) activity in dissociated rat embryonic spinal cord culture.
Result: < 120 % of Control

Task: Write down the reported Spinal Cord ChAT Activity, % of Control, untreated cultures of O=C1NCc2c1c1c(c3[nH]c4ccc(C=Cc5ccccn5)cc4c23)Cc2ccccc2-1 [Compound I-32] , test system: choline acetyltransferase (ChAT) activity in dissociated rat embryonic spinal cord culture.
Result: 288 % of Control

Task: Write down the reported Spinal Cord ChAT Activity, % of Control, untreated cultures of O=C1NCc2c1c1c(c3[nH]c4ccc(C=CI)cc4c23)Cc2ccccc2-1 [Compound I-44] , test system: choline acetyltransferase (ChAT) activity in dissociated rat embryonic spinal cord culture.
Result: 127 % of Control

Task: Write down the reported Spinal Cord ChAT Activity, % of Control, untreated cultures of O=C1NCc2c1c1c(c3[nH]c4ccccc4c23)Cc2ccccc2-1 [Compound I-2] , test system: choline acetyltransferase (ChAT) activity in dissociated rat embryonic spinal cord culture.
Result: 160 % of Control

Task: Write down the reported Spinal Cord ChAT Activity, % of Control, untreated cultures of O=C1NCc2c1c1c(c3[nH]c4ccc(Br)cc4c23)Cc2ccccc2-1 [Compound I-9] , test system: choline acetyltransferase (ChAT) activity in dissociated rat embryonic spinal cord culture.
Result: 185 % of Control

Task: Write down the reported Spinal Cord ChAT Activity, % of Control, untreated cultures of O=C1NC(=O)c2c1c1c3ccccc3[nH]c1c1oc3ccccc3c21 [Compound I-21] , test system: choline acetyltransferase (ChAT) activity in dissociated rat embryonic spinal cord culture.
Result: 122 % of Control

Task: Write down the reported Spinal Cord ChAT Activity, % of Control, untreated cultures of O=C1NC(=O)c2c1c1c3ccccc3ccc1c1[nH]c3ccccc3c21 [Compound I-15] , test system: choline acetyltransferase (ChAT) activity in dissociated rat embryonic spinal cord culture.
Result: 182 % of Control

Task: Write down the reported Spinal Cord ChAT Activity, % of Control, untreated cultures of N#CC=Cc1ccc2[nH]c3c4c(c5c(c3c2c1)CNC5=O)-c1ccccc1C4 [Compound I-35] , test system: choline acetyltransferase (ChAT) activity in dissociated rat embryonic spinal cord culture.
Result: 121 % of Control

Task: Write down the reported Spinal Cord ChAT Activity, % of Control, untreated cultures of O=C1NCc2c1c1c(c3[nH]c4ccccc4c23)CCc2ccccc2-1 [Compound I-17] , test system: choline acetyltransferase (ChAT) activity in dissociated rat embryonic spinal cord culture.
Result: 197 % of Control

Task: Write down the reported Spinal Cord ChAT Activity, % of Control, untreated cultures of O=C1NC(=O)c2c1c1c(c3[nH]c4ccc(Br)cc4c23)Cc2ccccc2-1 [Compound I-6] , test system: choline acetyltransferase (ChAT) activity in dissociated rat embryonic spinal cord culture.
Result: 209 % of Control

Task: Write down the reported Spinal Cord ChAT Activity, % of Control, untreated cultures of O=C1NCc2c3c(c4[nH]c5ccc(C=Cc6ccccn6)cc5c4c21)Cc1ccccc1-3 [Compound I-41] , test system: choline acetyltransferase (ChAT) activity in dissociated rat embryonic spinal cord culture.
Result: 122 % of Control

Task: Write down the reported Spinal Cord ChAT Activity, % of Control, untreated cultures of O=C1NCc2c1c1c(c3[nH]c4ccc(C=Cc5ccncc5)cc4c23)Cc2ccccc2-1 [Compound I-33] , test system: choline acetyltransferase (ChAT) activity in dissociated rat embryonic spinal cord culture.
Result: 144 % of Control

Task: Write down the reported Spinal Cord ChAT Activity, % of Control, untreated cultures of COc1ccc2[nH]c3c4c(c5c(c3c2c1)CNC5=O)-c1ccccc1C4 [Compound I-13] , test system: choline acetyltransferase (ChAT) activity in dissociated rat embryonic spinal cord culture.
Result: 217 % of Control

Task: Write down the reported Spinal Cord ChAT Activity, % of Control, untreated cultures of O=C1NCc2c3c(c4[nH]c5ccc(Br)cc5c4c21)CCc1ccccc1-3 [Compound I-18] , test system: choline acetyltransferase (ChAT) activity in dissociated rat embryonic spinal cord culture.
Result: 133 % of Control

Task: Write down the reported Spinal Cord ChAT Activity, % of Control, untreated cultures of O=C1NCc2c1c1c(c3[nH]c4ccc(F)cc4c23)CCc2ccccc2-1 [Compound I-22] , test system: choline acetyltransferase (ChAT) activity in dissociated rat embryonic spinal cord culture.
Result: 143 % of Control

Task: Write down the reported Spinal Cord ChAT Activity, % of Control, untreated cultures of O=C1NC(=O)c2c1c1c3ccccc3[nH]c1c1sc3ccccc3c21 [Compound I-20] , test system: choline acetyltransferase (ChAT) activity in dissociated rat embryonic spinal cord culture.
Result: 130 % of Control

Task: Write down the reported Spinal Cord ChAT Activity, % of Control, untreated cultures of O=C1NCc2c3c(c4[nH]c5ccc(Br)cc5c4c21)Cc1ccccc1-3 [Compound I-11] , test system: choline acetyltransferase (ChAT) activity in dissociated rat embryonic spinal cord culture.
Result: 188 % of Control

Task: Write down the reported Spinal Cord ChAT Activity, % of Control, untreated cultures of O=C1NC(=O)c2c1c1c(c3[nH]c4ccccc4c23)CCc2cc(Br)ccc2-1 [Compound Ia-5] , test system: choline acetyltransferase (ChAT) activity in dissociated rat embryonic spinal cord culture.
Result: 132 % of Control

Task: Write down the reported Spinal Cord ChAT Activity, % of Control, untreated cultures of O=C1NCc2c3c(c4[nH]c5ccccc5c4c21)CCc1ccccc1-3 [Compound I-16] , test system: choline acetyltransferase (ChAT) activity in dissociated rat embryonic spinal cord culture.
Result: 142 % of Control

Task: Write down the reported Spinal Cord ChAT Activity, % of Control, untreated cultures of O=C1NCc2c1c1c3ccccc3[nH]c1c1sc3ccccc3c21 [Compound I-42] , test system: choline acetyltransferase (ChAT) activity in dissociated rat embryonic spinal cord culture.
Result: 177 % of Control

Task: Write down the reported Spinal Cord ChAT Activity, % of Control, untreated cultures of CCCCCc1ccc2[nH]c3c4c(c5c(c3c2c1)C(=O)NC5=O)-c1ccccc1C4 [Compound I-37] , test system: choline acetyltransferase (ChAT) activity in dissociated rat embryonic spinal cord culture.
Result: < 120 % of Control

Data provenance is patent US5594009A.
